Cited source: ChEMBL document CHEMBL1159344

Quick reference: CC50 of the listed items.
Experiment: Cytotoxicity against human HOG.R5 cells
Format: cell-based
READOUT_TYPE: CC50 (µM)

>>> df
                                   compound  observed
0  C[C@H]1[C@H](C)CC[C@]2(C(=O)O)CC[C@]3(C)C(=CC[C@@H]4[C@@]5(C)CC[C@H](O)C(C)(C)[C@@H]5CC[C@]43C)[C@H]12 [URSOLIC ACID]      15.8
1  CC(=O)/C=C/C[C@@H](C)[C@H]1CC[C@@]2(C)[C@@H]3CC[C@H]4C(C)(C)[C@@H](O)CC[C@@]45C[C@@]35CC[C@]12C      12.7
2  C=Cc1c(C)c2cc3nc(c4c5[nH]c(cc6nc(cc1[nH]2)C(C)=C6CC)c(C)c5C(=O)[C@@H]4C(=O)OC)[C@@H](CCC(=O)O)[C@@H]3C [PHEOPHORBIDE A]      33.8

---

The reader will find reported IC50 values listed item by item below.
System: Human immunodeficiency virus 1
Assay: Antiviral activity against HIV1 3B infected in human HOG.R5 assessed as inhibition of viral replication by microtiter assay
Assay type: functional, organism-based
Conditions: Human immunodeficiency virus 1, 3B
READOUT_TYPE: IC50 (µM)

                                   molecule  unit_string  observed
0  C/C(=C\CC[C@@H](C)[C@H]1CC[C@@]2(C)C3=C(CC[C@]12C)[C@@]1(C)CCC(=O)C(C)(C)[C@@H]1CC3)C(=O)O           µM       8.6
1  CC(=O)/C=C/C[C@@H](C)[C@H]1CC[C@@]2(C)[C@@H]3CC[C@H]4C(C)(C)C(=O)CC[C@@]45C[C@@]35CC[C@]12C [VATICINONE]           µM      15.3
2  C/C(=C\CC[C@@H](C)[C@H]1CC[C@@]2(C)[C@@H]3CC[C@H]4C(C)(C)C(=O)CC[C@@]45C[C@@]35CC[C@]12C)C(=O)O [MANGIFERONIC ACID]           µM      44.1

---

Assay: Cytotoxicity against human HOG.R5 cells
Format: cell-based
Measured CC50 of individual entries
READOUT_TYPE: CC50

MOLECULE	READOUT_TYPE	OBSERVED
CC(CCC[C@@H](C)[C@H]1CC[C@@]2(C)[C@@H]3CC[C@H]4C(C)(C)C(=O)CC[C@@]45C[C@@]35CC[C@]12C)C(=O)O (stereo not given in full) [DIHYDROSCHIZANDRONIC ACID]	CC50	43.9 µM
C=C(C)[C@@H]1CC[C@]2(CO)CC[C@]3(C)[C@H](CC[C@@H]4[C@@]5(C)CC[C@H](O)C(C)(C)[C@@H]5CC[C@]43C)[C@@H]12	CC50	19.5 µM
C=C(CC[C@H](O)C(=C)C)[C@H]1CC[C@]2(C)[C@@H]1CC[C@@H]1[C@@]3(C)CC[C@H](O)C(C)(C)[C@@H]3CC[C@]12C	CC50	14.3 µM
CC(=O)/C=C/C[C@@H](C)[C@H]1CC[C@@]2(C)[C@@H]3CC[C@H]4C(C)(C)C(=O)CC[C@@]45C[C@@]35CC[C@]12C	CC50	21.5 µM
C=C(C/C=C/C(C)(C)O)[C@H]1CC[C@]2(C)[C@@H]1CC[C@@H]1[C@@]3(C)CC[C@H](O)C(C)(C)[C@@H]3CC[C@]12C	CC50	30.3 µM
